Entry source: ChEMBL document CHEMBL4373745

System: FaDu
Experiment: Cytotoxicity against human FADU cells assessed as reduction in cell viability incubated for 96 hrs by SRB assay
Format: functional, cell-based
pEC50: −log10 of the molar value.
Measured metric: pEC50

INSERT INTO measurements (smiles_str, measured_target, result) VALUES
  ('C=C(C)[C@@H]1CC[C@]2(C(=O)NCCNC(=O)CCC3=[N+]4C(=Cc5c(C)cc(C)n5[B-]4(F)F)C=C3)CC[C@]3(C)[C@H](CC[C@@H]4[C@@]5(C)CC[C@H](OC(C)=O)C(C)(C)[C@@H]5CC[C@]43C)[C@@H]12', 'FaDu', '< 4.52');

Proceed to the following item.
The compound CC(=O)O[C@H]1CC[C@]2(C)[C@H]3C(=O)C=C4[C@@H]5C[C@@](C)(C(=O)NCCNC(=O)CCC6=[N+]7C(=Cc8c(C)cc(C)n8[B-]7(F)F)C=C6)CC[C@]5(C)CC[C@@]4(C)[C@]3(C)CC[C@H]2C1(C)C showed pEC50 equal to < 4.52

---

Test system: FaDu
Experiment: Cytotoxicity against human FADU cells assessed as reduction in cell viability incubated for 96 hrs by SRB assay
Assay type: functional, cell-based
Measured metric: EC50 (µM)
Respond numerically; units are µM and should not be typed.

Consider the following illustrative entries.
INSERT INTO results (smiles_str, measured_metric, numeric_readout) VALUES
  ('CC(=O)O[C@H]1CC[C@]2(C)[C@H]3CC=C4[C@@H]5[C@@H](C)[C@H](C)CC[C@]5(C(=O)N5CCNCC5)CC[C@@]4(C)[C@]3(C)CC[C@H]2C1(C)C', 'EC50', 1.9),
  ('CC(=O)O[C@H]1CC[C@]2(C)[C@H]3C(=O)C=C4[C@@H]5C[C@@](C)(C(=O)NCCN)CC[C@]5(C)CC[C@@]4(C)[C@]3(C)CC[C@H]2C1(C)C', 'EC50', 5.7);

Lookup result for CC(=O)O[C@H]1CC[C@]2(C)[C@H]3CC=C4[C@@H]5[C@@H](C)[C@H](C)CC[C@]5(C(=O)NCCN)CC[C@@]4(C)[C@]3(C)CC[C@H]2C1(C)C ; measured EC50: 3.7

The molecule identified as CC(=O)O[C@H]1CC[C@]2(C)[C@H]3C(=O)C=C4[C@@H]5C[C@@](C)(C(=O)N6CCNCC6)CC[C@]5(C)CC[C@@]4(C)[C@]3(C)CC[C@H]2C1(C)C registered its EC50 at 8.7

The molecule C=C(C)[C@@H]1CC[C@]2(COC(C)=O)CC[C@]3(C)[C@H](CC[C@@H]4[C@@]5(C)CC[C@H](OC(=O)CCC6=[N+]7C(=Cc8c(C)cc(C)n8[B-]7(F)F)C=C6)C(C)(C)[C@@H]5CC[C@]43C)[C@@H]12 showed EC50 equal to 4.7
